- Tested on: Plasmodium berghei
- Method Summary: Screen against P. berghei liver stage (PbLuc), transformed with Luciferase, at 10uM
- Type: functional, HepG2
- Test Parameters: tested at 10 uM
In all, about 69,000 compounds went through this assay and about 8,600 (12%) showed an effect of 50% or more. For the sample, strong results were picked, then their nearest neighbours and some compounds at random.
Parameter Measured: INHIBITION (%)
All answers are understood in %, so give the number only.

compound="CC(OCC1CC1)C(=O)NCc1ccc(Cn2ccnc2)cc1 (stereo not drawn)" value_measured=30.1
compound=O=C(COc1cccc2c1CCC2=O)NCc1ccccc1F value_measured=1.58
compound="Cc1ncccc1CNCC1CCCN1c1cccnn1 (stereo not drawn)" value_measured=7.67
compound=Cc1ccc(C(=O)N2C[C@H](OCc3cccnc3)[C@H]3COC[C@H]32)cn1 value_measured=25.3
compound=COc1ccc(-c2cc(C3CCNCC3)ccn2)cc1 value_measured=23.9

The measured INHIBITION associated with CNc1ccc(CC2CCCN(C(=O)c3cnccn3)C2)nn1 (stereo not drawn) reads 32.3

The measured INHIBITION associated with `CCCn1nccc1NC(=O)CN1CCc2cnc(C(C)C)nc2C1` reads 55

The measured INHIBITION associated with `O=C1CCN(C(=O)NCCc2c[nH]c3ccc(Cl)cc23)CCN1` reads 1.56

----------
- System: Plasmodium berghei
- Method Summary: Screen against P. berghei liver stage (PbLuc), transformed with Luciferase, at 10uM
- Type: functional, HepG2
- Test Parameters: tested at 10 uM
About 8,600 (12%) of roughly 69,000 compounds showed an effect of 50% or more. This is one part of a sample in which strong results are shown more often than they occur.
Please mark class 1 if the recorded INHIBITION is equal to or greater than 50%, and class 0 if it falls below.

compound=CC(C)c1nnc2n1CCN(CCC(=O)Nc1sccc1C#N)C2 qualitative_label="class 0"
compound=CC(C)NC(=O)c1cc(-c2ccc(S(C)(=O)=O)cc2)c2cnn(C)c2n1 qualitative_label="class 1"
compound=Cc1nnc(CN2C[C@H](NC(=O)CC3CCCC3)[C@@H](C3CC3)C2)s1 qualitative_label="class 1"
compound=CN(C)C(=O)c1cc(-c2ccc(S(C)(=O)=O)cc2)c2cnn(C)c2n1 qualitative_label="class 0"
compound="Cc1nnc(C(C)N(C)Cc2c(C)nn(-c3ccccc3C)c2C)o1 (stereo unspecified)" qualitative_label="class 1"

Could you verify whether the entry `O=C(Nc1ccc(CCN2CCOCC2)cc1)C1CCCC1` shows INHIBITION of no less than 50%? class 0

Could you verify whether the entry Cc1nnc(C(C)N(C)Cc2c(C)nn(-c3ccccc3)c2C)o1 (stereo unspecified) shows INHIBITION of no less than 50%? class 0

Could you verify whether the entry `Cc1noc(C2CCN(Cn3cc(Cl)cn3)CC2)n1` shows INHIBITION of no less than 50%? class 0

Could you verify whether the entry O=C(CCOCC(F)(F)F)N1CCCC(n2ccnc2)C1 (stereo unspecified) shows INHIBITION of no less than 50%? class 0

Could you verify whether the entry CN(CC(=O)Nc1cccnc1)CC1CCCN1c1cccnn1 (stereo unspecified) shows INHIBITION of no less than 50%? class 1

----------
- System: Plasmodium berghei
- Method Summary: Screen against P. berghei liver stage (PbLuc), transformed with Luciferase, at 10uM
- Type: functional, HepG2
- Test Parameters: tested at 10 uM
About 8,600 (12%) of roughly 69,000 compounds showed an effect of 50% or more. The full list was thinned out, with strong results kept by preference.
Please mark label 1 if the recorded INHIBITION is equal to or greater than 20%, and label 0 if it falls below.

Study these solved cases before continuing.
compound="CC[C@H](C)[C@@H](CO)NC(C)Cc1ccc(Cl)cc1 (stereo partly specified)" target_or_system="Plasmodium berghei" qualitative_label="label 1"
compound="CC(C)(C)c1nccc(N2CCCCC2CNS(C)(=O)=O)n1 (stereo unspecified)" target_or_system="Plasmodium berghei" qualitative_label="label 0"
compound=Cc1cc(CN2CCC(CNS(=O)(=O)c3ccccc3F)CC2)c(C)o1 target_or_system="Plasmodium berghei" qualitative_label="label 0"
compound=COc1ncccc1C(=O)N1CC[C@H]2C[C@@H](c3noc(C)n3)O[C@@H]2C1 target_or_system="Plasmodium berghei" qualitative_label="label 0"
compound=Cc1cc(CN2CCC(CNS(=O)(=O)c3ccc(C)s3)CC2)c(C)o1 target_or_system="Plasmodium berghei" qualitative_label="label 1"

Could you verify whether the entry Cc1cccc(C)c1OCCNC(=O)C(C)n1cncn1 (stereo unspecified) shows INHIBITION of no less than 20%? label 0

Could you verify whether the entry CC[C@H](C)[C@@H](CO)NC(C)Cc1ccc(C)cc1 (stereo partly specified) shows INHIBITION of no less than 20%? label 1

Could you verify whether the entry CN(C)CC(=O)N1CCCC2(CCN(c3ccccc3)C2=O)C1 (stereo unspecified) shows INHIBITION of no less than 20%? label 0

Could you verify whether the entry COc1cc2c(cc1C(=O)N1CCCCC1c1ccccn1)CCC2 (stereo unspecified) shows INHIBITION of no less than 20%? label 0

Could you verify whether the entry `CN(C)CCN1CC[C@@H]2[C@@H]1CCN2C(=O)c1cccc(Cl)c1` shows INHIBITION of no less than 20%? label 1

Could you verify whether the entry CC[C@H](C)[C@@H](CO)NC(C)Cc1ccc(F)cc1 (stereo partly specified) shows INHIBITION of no less than 20%? label 0

----------
- Test system: Plasmodium berghei
- Method Summary: Screen against P. berghei liver stage (PbLuc), transformed with Luciferase, at 10uM
- Format: functional, HepG2
- Test Parameters: tested at 10 uM
In all, about 69,000 compounds went through this assay and about 8,600 (12%) showed an effect of 50% or more. For the sample, strong results were picked, then their nearest neighbours and some compounds at random.
molecules and their reported INHIBITION
All answers are understood in %, so give the number only.

molecule="CCN1CCCC(C)(C(=O)NCc2nccn2Cc2ccccc2)C1 (configuration not stated)" parameter_measured=INHIBITION value_measured=47.2

The measured INHIBITION associated with CC(NC(=O)Cc1cccs1)c1nnc2n1CCC2 (configuration not stated) reads -12.2

The measured INHIBITION associated with `O=C(CCOc1cccc(Cl)c1)N1CCN(c2cnccn2)CC1` reads -8.11

----------
- Test system: Plasmodium berghei
- Method Summary: Screen against P. berghei liver stage (PbLuc), transformed with Luciferase, at 10uM
- Assay type: functional, HepG2
- Test Parameters: tested at 10 uM
The campaign covered roughly 69,000 compounds. About 8,600 (12%) showed an effect of 50% or more. The sample holds strong results, similar compounds and a random draw of the others, so the mix is not that of the screen.
Parameter Measured: INHIBITION (%)
All answers are understood in %, so give the number only.

Guide cases for INHIBITION, answers given:
compound="Fc1cccc(N2CCOC3(CCCN(c4cnccn4)C3)C2)c1 (stereo not drawn)" parameter_measured=INHIBITION value_measured=41
compound=COCCCN(C)c1cc(C(F)(F)F)nc(-c2cccnc2)n1 parameter_measured=INHIBITION value_measured=59.4
compound="CC(CNc1cncc(-n2cccn2)n1)N(C)c1ccccc1 (stereo not drawn)" parameter_measured=INHIBITION value_measured=10
compound=Cc1noc([C@]23COC[C@H]2CN(C(=O)Cc2ccsc2)C3)n1 parameter_measured=INHIBITION value_measured=38.5
compound="Cc1ncnc(NCC(C)N(C)c2ccccc2)c1C (stereo not drawn)" parameter_measured=INHIBITION value_measured=68.6
compound=Cc1ccsc1C(=O)Nc1cnn(CC(=O)NC2CCCC2)c1 parameter_measured=INHIBITION value_measured=-4.63
compound=CCCOc1ccccc1CCCNc1ncnc2oc(C)nc12 parameter_measured=INHIBITION value_measured=83.5
compound=Cc1cc(C)c2cc(C(=O)N3CCNC(=O)C3)[nH]c2c1 parameter_measured=INHIBITION value_measured=14.3

The measured INHIBITION associated with CCC(C(=O)NCC1CCN(c2ccncc2)CC1)N(C)C (stereo not drawn) reads 34.9

The measured INHIBITION associated with Fc1cnc(N2CCCC3(CN(Cc4ccncc4)CCO3)C2)nc1 (stereo not drawn) reads 1.71

The measured INHIBITION associated with Cn1cc(N2CCC3(CCN(Cc4nccs4)C3)C2=O)cn1 (stereo not drawn) reads 26.2

The measured INHIBITION associated with COCC(O)CN(C)c1cc(C(F)(F)F)nc(-c2cccnc2)n1 (stereo not drawn) reads 85.1

The measured INHIBITION associated with CCC(CN1CCCCC1)NC(=O)C1(c2ccc(F)cc2)CC1 (stereo not drawn) reads 48.2

The measured INHIBITION associated with `Cc1nc(-c2ccccc2)ccc1C(=O)N1CCn2c(C)nnc2C1` reads -0.758

The measured INHIBITION associated with CC(Oc1ccccc1)C(=O)N1CCCN(Cc2cscn2)CC1 (stereo not drawn) reads 27.25

The measured INHIBITION associated with Cc1ncnc(NC(CC(C)(C)C)c2cccnc2)c1C (stereo not drawn) reads 40.3

The measured INHIBITION associated with `COC[C@@]12CCO[C@@H]1CCN(C(=O)C1CCOCC1)C2` reads 13.1

The measured INHIBITION associated with CCC(CNc1ncnc2oc(C)nc12)Cc1ccccc1 (stereo not drawn) reads 59.5

The measured INHIBITION associated with Cc1nc(CN(C)C2CCN(CCc3ccccn3)C2)no1 (stereo not drawn) reads -41.6

The measured INHIBITION associated with `Cc1nc2c(N(CCC(N)=O)CCc3ccccc3)ncnc2o1` reads 19.2

The measured INHIBITION associated with `O=C(c1ccc(Cl)o1)N1CCCN(Cc2cscn2)CC1` reads 50.4

The measured INHIBITION associated with Fc1cccc(N2CCCC3(CN(Cc4cccnc4)CCO3)C2)c1 (stereo not drawn) reads 71.9

The measured INHIBITION associated with `CCNc1cc2c(nn1)CCN(C(=O)CCc1c(C)noc1Cl)C2` reads 0.411

The measured INHIBITION associated with COc1cccc(CNC(C)Cn2cccn2)c1OC (stereo not drawn) reads 20.9

The measured INHIBITION associated with `CCCN(CCc1ccccc1)c1ncnc2oc(C)nc12` reads 25.4

The measured INHIBITION associated with `CN(C)Cc1cccc(-c2cccnc2C(=O)NCc2ccco2)c1` reads 2.7

The measured INHIBITION associated with `CN(CCn1cccn1)c1cc(C(F)(F)F)nc(-c2cccnc2)n1` reads 3.67
